Assay: label from the status in PepcDB records
quantity-name: protein production

These solved cases illustrate the format of a correct answer.
MSLARCERLRGAALRDVLGRAQGVLFDCDGVLWNGERAVPGAPELLERLARAGKAALFVSNNSRRARPELALRFARLGFGGLRAEQLFSSALCAARLLRQRLPGPPDAPGAVFVLGGEGLRAELRAAGLRLAGDPSAGDGAAPRVRAVLVGYDEHFSFAKLREACAHLRDPECLLVATDRDPWHPLSDGSRTPGTGSLAAAVETASGRQALVVGKPSPYMFECITENFSIDPARTLMVGDRLETDILFGHRCGMTTVLTLTGVSRLEEAQAYLAAGQHDLVPHYYVESIADLTEGLEDEGHHHHHH	not failed
MQSYSDSKPGGATFALFETEHLKANIRRALVEAVLSPWQRTFLSDVLSKLERYGNRARLSHKQLLKLNEILGGNGTPRQDRVTTSRTTRHTRRPRFRSPSFLSRQIRWSRRRLARDAVVVALIVMVGLLYSVFETGPVQSFLGTVGKSSHVMGPVDQAFTVTDGDTVHVAGERAGTRLVGFNTPEKFSPQCEYERKLGERASSRLRELVKSPNLQLTKVPCACPAGSEGTDACNHGRSCGVLKVDGRDVGQILIGEGLAVPFICEGNRCPRTPRPWCGQQS	failed
MVKPLRLNDRHQQILRATVQHYIATAEPVGSHTLAQEYQFAVSSATIRNALGQLEKAGLLYQPHVSAGRVPSDSGYRIYVDNLLTWSDRQSRTVKQRLENEINGDNWHFEALIQRMGQILAGLSGYIALITFPQTETVQLRHLQLMLLPSHQILIILVTDSYHTHSATLDLPAAMEAKEEGELEQELAIFSNFLNAQLRGKNLSELSHLNWQELDQKFSIYADFLKGLQQQIKPLLQRRMAGPLVVHGVSKVIQQPEFSQLEQVQMLLSLLEQEQDKLFSLLFDPDNYGDNLANLGQEMNLLTGETMPKTRPVVTIRIGAENPLESMHPCTLVSAIYRQQEIPMGSVSILGPTRMVYQQTIPLVEQAAECLSEALSKN	failed
MDGSIRVSAKTVDDAITEALIQLGVTSDRLEYEVIEKGSSGFLGIGMKQAVIEARRKPEPVAEVKEETIPVEEVKPSVVKEQVSEPVQEKQEEKAEEEPARKKATELAEVSDEAIKAVEAFLNDTLKAMDMDVEIVSEVDSEGALSVEMKGSNMGILIGKRGQTLDALQYLANRVANKHQDGYVRVKLDTENYRARREETLRHLAKNIAFKVKRTRRAVSLEPMNPYERRIIHAALQSDPHVTTHSEGEEPYRKVVVTLKR	failed
MIIRIKHYGEVKIEDSKNLLLNLIENRIGIDNICNGKGTCGKCKVRFRQGVPEATSADLRYLSVEELEEGVRLACQVKPQKGMEIDVTLSNSFDRKNTVLEHHHHHH	failed

Proceed to the following item.
Lab note: measured protein production of MSDQPMNEVQDNAAPANPWLELRRLTPARIALGRTGTSLPTCAQLDFQAAHAQARDAVHLAFDHAAISAQLAEKGRETILLHSAAADRDSYLQRPDLGRRLNDESAQTLRDYAAAHPGGLDLAVVVADGLSALAVHRHAVPFLTRLEEQASAEGWTLSPVLMVEQGRVAVADEIGELLGAKMVVILIGERPGLSSPDSLGLYFTYAPKVGLNDAHRNCISNVRLEGLSYAMAAHRLLYLMREACKRQISGVSLKDEAQLNTLESDDSAENSDRKIGNFLLDGPAVPH was not failed
